target: PARP-1 F1+F2 (24-kDa DBD) (Homo sapiens, UniProt P09874 1-214); assay: fluorescence anisotropy; 0; 50 mM Tris-HCl pH 7.0, 150 uM ZnSO4, 4 mM DTT, 25 C; NaCl 0-200 mM (T2, as in cof; 10 nM DNA) or 25 mM (T3 mutants; 25 nM DNA); details: protein: recombinant; label: fluorescein-dT at T8 and T30; circular closed dumbbell, two tetraloops, no nick
Sequence (P09874 1-214): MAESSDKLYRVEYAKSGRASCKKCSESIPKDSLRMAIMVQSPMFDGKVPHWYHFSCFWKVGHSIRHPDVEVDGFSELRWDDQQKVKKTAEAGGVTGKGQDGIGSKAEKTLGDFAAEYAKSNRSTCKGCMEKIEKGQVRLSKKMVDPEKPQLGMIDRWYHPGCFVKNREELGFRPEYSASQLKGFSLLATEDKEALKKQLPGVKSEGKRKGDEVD
Quantity: Kd (nM)
// return numeric value only (unit: nM, not printed)

Using the record for CGGTCGATCGTAAGATCGACCGCGGTCGATCGTAAGATCGACCG (structured_DNA, circular, nick sealed by T4 DNA ligase) [ligated (circular) symmetric 44-nt dumbbell, 2x fluorescein-dT] , report its Kd.
117

# credit: paper PMC3094755
